Values compiled from ChEMBL document CHEMBL1157539.

test system: Plasmodium falciparum; test: GSK_TCMDC: Inhibition of Plasmodium falciparum 3D7 in whole erythrocytes, using parasite LDH activity as an index of growth.; type: functional, organism-based; details: Plasmodium falciparum, 3D7
molecules and their reported XC50
Report the value in nM with no unit label.

Completed entries (count: 5):
| Molecule | Observable | Recorded measurement |
| --- | --- | --- |
| O=C(CSc1nccn1Cc1ccco1)Nc1cc(C(F)(F)F)ccc1Cl | XC50 | 822 |
| c1cc(Cc2ccc(Nc3c4ccccc4nc4ccccc34)cc2)cc(Nc2c3ccccc3nc3ccccc23)c1 | XC50 | 143 |
| Cn1cc(C2CCN(CCCCNC(=O)c3ccc(C(=O)Nc4ccc(C#N)cc4)cc3)CC2)c2ccccc21 | XC50 | 724 |
| OC1CCCN(Cc2ccc(-c3ccc(-c4nc5cc(F)ccc5[nH]4)cc3)cc2)C1 (configuration not stated) | XC50 | 854 |
| CN1CCN(c2ccnc3ccc(NC(=O)Nc4cccc5ccccc45)cc23)CC1 | XC50 | 488 |

Asked: Which XC50 value is on record for CNC(=O)c1cnc(Nc2ccc(OCC(O)CN(C)C)cc2)nc1Nc1cccc([N+](=O)[O-])c1 (configuration not stated) ?
Given back: 617

Asked: Which XC50 value is on record for `Cc1nc(-c2nc(NCCc3c(C)noc3C)ncc2-c2ccsc2)sc1C` ?
Given back: 256

Asked: Which XC50 value is on record for `Cc1cc(-c2nc3ccc(CN4CCN(C)CC4)cc3[nH]2)nn1Cc1cc(Cl)ccc1OCc1ccccc1` ?
Given back: 1120

Asked: Which XC50 value is on record for CCC1CN2CCc3c([nH]c4ccccc34)[C@@H]2C[C@@H]1CC1NCCc2cc(OC)c(OC)cc21 (some centres not stated) ?
Given back: 865

Asked: Which XC50 value is on record for `CNCC(C)(C)c1nc(-c2ccc(Cl)c(O)c2)c(-c2ccncc2)[nH]1` ?
Given back: 736
